Molecular target: T1, human CD22-ECD-His protein (human, UniProt P20273 20-687)
T1 construct: Made in house in HEK293E; also called hCD22-ECD-His; recombinant human CD22-ECD His protein; not shown: His tag
T1 sequence: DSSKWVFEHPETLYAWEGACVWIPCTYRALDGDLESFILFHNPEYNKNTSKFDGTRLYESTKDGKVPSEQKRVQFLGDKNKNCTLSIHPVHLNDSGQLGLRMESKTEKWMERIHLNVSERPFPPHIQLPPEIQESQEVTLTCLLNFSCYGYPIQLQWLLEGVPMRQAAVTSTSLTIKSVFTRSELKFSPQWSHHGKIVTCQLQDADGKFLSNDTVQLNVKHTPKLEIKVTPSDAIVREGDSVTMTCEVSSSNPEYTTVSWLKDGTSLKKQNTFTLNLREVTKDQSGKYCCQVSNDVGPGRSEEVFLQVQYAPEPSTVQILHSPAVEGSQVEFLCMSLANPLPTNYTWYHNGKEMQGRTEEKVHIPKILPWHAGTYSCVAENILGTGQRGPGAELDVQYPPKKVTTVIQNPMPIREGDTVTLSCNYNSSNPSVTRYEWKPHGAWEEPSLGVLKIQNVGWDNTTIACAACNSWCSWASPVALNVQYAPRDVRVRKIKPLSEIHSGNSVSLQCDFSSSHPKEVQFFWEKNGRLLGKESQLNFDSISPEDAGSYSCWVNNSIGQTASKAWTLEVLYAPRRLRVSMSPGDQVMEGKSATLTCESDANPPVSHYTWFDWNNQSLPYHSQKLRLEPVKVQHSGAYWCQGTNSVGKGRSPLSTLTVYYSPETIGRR
Assay: ELISA, human CD22-ECD-His coated
PROPERTY NAME: EC50 (read off the curve)

F2.121.9 (antibody, human IgG1, lambda, V domains shown, Human-murine chimeric IgG1, lambda) VH: EVQLVESGGGLVKPGGSLKLSCAASGFTFSDYVMSWIRQTPEKRLEWVATISDAGSYTFYPDNLKGRFTISRDNAKNNLYLQMNHLTSEDTAFYYCAIIYFGNYGGYWGQGTLVTVSV VL: QAVVTQESALTTSPGGTVVLTCRSNTGAVTTSNYANWVQEKPDHLFTGLIGGTSNRAPGVPVRFSGSLIGDKAALTITGAQTEDDAMYFCALWYSTHWVFGGGTKLTVLG = ~30 pM

Now examine the next entry.
binder F1.280.1 (antibody, human IgG1, kappa, V domains shown, Human-murine chimeric IgG1, kappa) VH: QIQLVQSGPELKKPGETVKISCKASGYTFTTYGMSWVKQTPGKGLTWMGWINTDSGVPTYADDFKRRFAFSLEASATTAYLQINNLKNEDTATYFCARGGPDYWGQGTTLTVSS VL: DILLTQSPATLSVTPGETVSLSCRASQSIYKNLHWYHQKSHRSPRLLIKYASDSISGIPSRFTGSGSGTNFTLSINSVKPEDEGIYYCLQGYIVPLTFGAGTKLELKR , EC50 (read off the curve) observed: ~20 pM
